ASSAYED_TARGET: HCV polymerase (NS5B) type 1b (Hepatitis C virus genotype 1b, UniProt P26663)
Construct: a region encoding NS5B (J Virol 1991 March, 65(3), 1105-13, 544 amino acids after deletion of 47 amino acids on the C-terminal); 6xHis (C); made in house; host or cells: Escherichia coli
ASSAY_REMARKS: Assay of enzyme (HCV polymerase) inhibitory activity, type 1b enzyme
Format: biochemical, HCV BK strain (type 1b)
MEASUREMENT_CONDITIONS: HCV polymerase inhibitory activity IC50, 1b, type 1b enzyme
pIC50: −log10 of the molar value.
EXPERIMENTAL_ENDPOINT: pIC50

| MOLECULE | pIC50 |
| --- | --- |
| CCC(F)(F)c1ccc(CNC(=O)[C@H]2CN(c3cnc4cncnc4n3)CCN2S(=O)(=O)c2cc3ccccc3s2)cc1 [Example 738] | > 7.00 |
| O=C(O)c1ccc(N2CCN(S(=O)(=O)c3ccc(OC(F)(F)F)cc3)[C@@H](C(=O)NCc3ccc(OC(F)(F)F)cc3)C2)nc1 [Example 774] | > 7.00 |

Let us examine a further case.
Reported pIC50 (HCV polymerase (NS5B) type 1b (Hepatitis C virus genotype 1b, UniProt P26663)) for entry N#Cc1ncc2sc(N3CCN(S(=O)(=O)c4ccc(C(F)(F)F)cc4)[C@@H](C(=O)NCc4ccc(OC(F)(F)F)cc4)C3)nc2n1 [Example 1010] is > 7.00

====

ASSAYED_TARGET: HCV polymerase (NS5B) type 1b (Hepatitis C virus genotype 1b)
Construct: a region encoding NS5B (J Virol 1991 March, 65(3), 1105-13, 544 amino acids after deletion of 47 amino acids on the C-terminal); 6xHis (C); made in house; host or cells: Escherichia coli
ASSAY_REMARKS: Assay of enzyme (HCV polymerase) inhibitory activity, type 1b enzyme
Format: biochemical, HCV BK strain (type 1b)
MEASUREMENT_CONDITIONS: HCV polymerase inhibitory activity IC50, 1b, type 1b enzyme
EXPERIMENTAL_ENDPOINT: IC50

| COMPOUND_STRUCTURE | TEST_VALUE |
| --- | --- |
| COc1nc(C(F)(F)F)nc2nc(N3CCN(S(=O)(=O)c4ccc(OC(F)(F)F)cc4)[C@@H](C(=O)NCc4ccc(OC(F)(F)F)cc4)C3)sc12 | 100 to 1000 nM |
| O=C(NCc1ccc(OC(F)(F)F)cc1)[C@H]1CN(c2nc3nc[nH]c(=O)c3s2)CCN1S(=O)(=O)c1ccc(OC(F)(F)F)cc1 | < 100 nM |

From here, focus on the item given below.
Data point: "O=C(NCc1ccc(OC(F)(F)F)cc1)[C@H]1CN(c2nc3nc(Cl)ncc3s2)CCN1S(=O)(=O)c1ccc(OC(F)F)cc1" ; IC50 = < 100 nM

====

ASSAYED_TARGET: HCV polymerase (NS5B) type 1b (Hepatitis C virus genotype 1b, UniProt P26663)
Construct: a region encoding NS5B (J Virol 1991 March, 65(3), 1105-13, 544 amino acids after deletion of 47 amino acids on the C-terminal); 6xHis (C); made in house; host or cells: Escherichia coli
ASSAY_REMARKS: Assay of enzyme (HCV polymerase) inhibitory activity, type 1b enzyme
Format: biochemical, HCV BK strain (type 1b)
MEASUREMENT_CONDITIONS: HCV polymerase inhibitory activity IC50, 1b, type 1b enzyme
EXPERIMENTAL_ENDPOINT: IC50

Use these answered entries as a reference point.
| MOLECULE | TEST_VALUE |
| --- | --- |
| CCC(F)(F)c1ccc(CNC(=O)[C@H]2CN(c3nc4nc(C)ncc4s3)CCN2S(=O)(=O)c2ccc(C(F)(F)F)cc2)cc1 | < 0.1 µM |
| CC(=O)N1CCN(S(=O)(=O)c2ccc(C(C)C)cc2)C(C(=O)NCc2ccc(C(F)(F)F)cc2)C1 (stereo not drawn) | > 1 µM |
| CCC(F)(F)c1ccc(CNC(=O)[C@H]2CN(c3cnc4ncccc4n3)CCN2S(=O)(=O)c2ccc(OC(F)(F)F)cc2)cc1 | < 0.1 µM |

Quick note, IC50 for "Cc1nc(C(N)=O)c2sc(N3CCN(S(=O)(=O)c4ccc(OC(F)(F)F)cc4)[C@@H](C(=O)NCc4ccc(OC(F)(F)F)cc4)C3)nc2n1" landed at < 0.1 µM

Looking up "Cc1cnc(CNC(=O)[C@H]2CN(c3cnc4cncnc4n3)CCN2S(=O)(=O)c2ccc(OC(F)(F)F)cc2)cn1" , I found its IC50 recorded as > 1 µM

response.value for "CCCc1ccc(CNC(=O)[C@H]2CN(c3nc4nc(Cl)ncc4s3)CCN2S(=O)(=O)c2ccc(OC(F)(F)F)cc2)cc1" (field: IC50) = < 0.1 µM

====

ASSAYED_TARGET: HCV polymerase (NS5B) type 1a (Hepatitis C virus genotype 1a)
Construct: made in house; host or cells: Escherichia coli (by the 'similar method' of the 1b enzyme)
ASSAY_REMARKS: Assay of enzyme (HCV polymerase) inhibitory activity, type 1a enzyme
Format: biochemical, HCV type 1a (cloned from the blood of patients)
MEASUREMENT_CONDITIONS: HCV polymerase inhibitory activity IC50, 1a, type 1a enzyme
pIC50: −log10 of the molar value.
Measured pIC50, listed per entry for reference.

Examples with answers:
| COMPOUND | pIC50 |
| --- | --- |
| CCCc1ccc(CNC(=O)[C@H]2CN(c3nc(C)c(S(N)(=O)=O)s3)CCN2S(=O)(=O)c2ccc(OC(F)(F)F)cc2)cc1 [Example 827] | > 7.00 |
| CCCc1ccc(CNC(=O)[C@H]2CN(c3nc4c(C(=O)OCC)n[nH]c(=O)c4s3)CCN2S(=O)(=O)c2ccc(CC)cc2)cc1 [Example 862] | > 7.00 |
| O=C(NCc1c(F)c(F)c(C(F)(F)F)c(F)c1F)[C@H]1CN(c2cnc3cncnc3n2)CCN1S(=O)(=O)c1ccc(OC(F)(F)F)cc1 [Example 795] | > 7.00 |
| O=C(NCc1ccc(OCF)cc1)[C@H]1CN(c2nc3nc(Cl)ncc3s2)CCN1S(=O)(=O)c1ccc(OC(F)(F)F)cc1 [Example 966] | > 7.00 |
| Cc1n[nH]c(=O)c2sc(N3CCN(S(=O)(=O)c4ccc(OC(F)(F)F)cc4)[C@@H](C(=O)NCc4ccc(OC(F)(F)F)cc4)C3)nc12 [Example 839] | > 7.00 |

The recorded pIC50 for CCCc1ccc(CNC(=O)[C@H]2CN(c3nc(C)c(CCC(=O)O)s3)CCN2S(=O)(=O)c2ccc(OC(F)(F)F)cc2)cc1 [Example 826] is > 7.00

The value of pIC50 measured for the compound COc1ccc2nc(N3CCN(S(=O)(=O)c4ccc(OC(F)(F)F)cc4)[C@@H](C(=O)NCc4ccc(OC(F)(F)F)cc4)C3)sc2n1 [Example 1050] turned out to be 6.00 to 7.00

Lookup result for CN(C)c1ncc2sc(N3CCN(S(=O)(=O)c4ccc(OC(F)(F)F)cc4)[C@@H](C(=O)NCc4ccc(OC(F)(F)F)cc4)C3)nc2n1 [Example 945] ; measured pIC50: > 7.00

Sample CCCc1ccc(CNC(=O)[C@H]2CN(c3cnc(C(=O)O)cn3)CCN2S(=O)(=O)c2ccc(Br)cc2)cc1 [Example 687] ; pIC50 observed: > 7.00

Notebook: CCCc1ccc(CNC(=O)[C@H]2CN(c3nc(C)c(S(=O)(=O)N(C)C)s3)CCN2S(=O)(=O)c2ccc(OC(F)(F)F)cc2)cc1 [Example 829] , pIC50 read as 6.00 to 7.00

# pIC50 (compound: CCN(CC)c1nc2nc(Cl)nc(N3CCN(S(=O)(=O)c4ccc(OC(F)(F)F)cc4)[C@@H](C(=O)NCc4ccc(OC(F)(F)F)cc4)C3)c2s1 [Example 993] ) is < 6.00

Record Cc1ncc2sc(N3CCN(S(=O)(=O)c4ccc(OC(F)(F)C(F)F)cc4)[C@@H](C(=O)NCc4ccc(OC(F)F)cc4)C3)nc2n1 [Example 1039] , field pIC50: > 7.00

====

ASSAYED_TARGET: HCV polymerase (NS5B) type 1a (Hepatitis C virus genotype 1a)
Construct: made in house; host or cells: Escherichia coli (by the 'similar method' of the 1b enzyme)
ASSAY_REMARKS: Assay of enzyme (HCV polymerase) inhibitory activity, type 1a enzyme
Type: biochemical, HCV type 1a (cloned from the blood of patients)
MEASUREMENT_CONDITIONS: HCV polymerase inhibitory activity IC50, 1a, type 1a enzyme
pIC50: −log10 of the molar value.
// pIC50 lookup, one value per entry

Check out these entries, answers already filled in.
| COMPOUND_STRUCTURE | pIC50 |
| --- | --- |
| CCCc1ccc(CNC(=O)[C@H]2CN(C(=O)Nc3ccccc3OCc3ccccc3)CCN2S(=O)(=O)c2ccc(OC(F)(F)F)cc2)cc1 | < 6.00 |
| CCCc1ccc(CNC(=O)[C@H]2CN(c3cnc4cncc(C(=O)O)c4n3)CCN2S(=O)(=O)c2ccc(Cl)s2)cc1 | > 7.00 |

Now let's try a different one.
"Cc1ncc2sc(N3CCN(S(=O)(=O)c4ccc(C(F)(F)F)cc4)[C@@H](C(=O)NCc4ccc(OC(F)(F)F)cc4)C3)nc2n1" yielded pIC50 of > 7.00
